details: in acetone, 303.46 K
measure: solubility (mole fraction)

The reported solubility (mole fraction) of the molecule `COc1cc(CNC(=O)CCCCCCC(C)C)ccc1O` was 0.236

====

conditions: in n-hexane, 303.09 K
measure: solubility (mole fraction)

The value of solubility (mole fraction) measured for the compound `COc1cc(CNC(=O)CCCCCCC(C)C)ccc1O` turned out to be 0.00021

====

details: in n-hexane, 296.14 K
measure: solubility (mole fraction)
Give a plain numeric answer without units written out.

Recorded solubility (mole fraction) (compound `COc1cc(CNC(=O)CCCCCCC(C)C)ccc1O` ): 0.000136

====

conditions: in water, 324.67 K
measure: solubility (mole fraction)
Please reply with the number alone, leaving off any unit.

Item: `COc1cc(CNC(=O)CCCCCCC(C)C)ccc1O` | solubility (mole fraction): 4.81e-05

====

settings: in acetone, 302.34 K
measure: solubility (mole fraction)
Please reply with the number alone, leaving off any unit.

The measured solubility (mole fraction) associated with `COc1cc(CNC(=O)CCCCCCC(C)C)ccc1O` reads 0.224

====

details: in n-pentane, 298.19 K
measure: solubility (mole fraction)
// keep it numeric: no unit symbol after the value

Lab note: `COc1cc(CNC(=O)CCCCCCC(C)C)ccc1O` gave solubility (mole fraction) of 0.000122

====

settings: in ethanol, 312.98 K
measure: solubility (mole fraction)
Lab note: record the figure alone, no unit after it.

The reported solubility (mole fraction) of the compound `COc1cc(CNC(=O)CCCCCCC(C)C)ccc1O` was 0.268

====

details: in n-heptane, 304.03 K
measure: solubility (mole fraction)
The answer should be a number; do not append a unit.

# compound `COc1cc(CNC(=O)CCCCCCC(C)C)ccc1O` ; its solubility (mole fraction) = 0.000318

====

details: in ethanol, 309.95 K
measure: solubility (mole fraction)
When you answer, write just the number.

Lab note: measured solubility (mole fraction) of `COc1cc(CNC(=O)CCCCCCC(C)C)ccc1O` was 0.249

====

conditions: in n-heptane, 309.97 K
measure: solubility (mole fraction)
In your answer, state the number alone without any accompanying words.

// recorded solubility (mole fraction) for `COc1cc(CNC(=O)CCCCCCC(C)C)ccc1O` : 0.000451

====

settings: in ethyl acetate, 306.48 K
measure: solubility (mole fraction)
Just the number, please, no unit attached.

The reported solubility (mole fraction) of the compound `COc1cc(CNC(=O)CCCCCCC(C)C)ccc1O` was 0.354

====

settings: in ethyl acetate, 308.81 K
measure: solubility (mole fraction)
Answer with a number only.

The recorded solubility (mole fraction) for entry `COc1cc(CNC(=O)CCCCCCC(C)C)ccc1O` equals 0.379

====

settings: in n-hexane, 305.04 K
measure: solubility (mole fraction)

// recorded solubility (mole fraction) for `COc1cc(CNC(=O)CCCCCCC(C)C)ccc1O` : 0.000238

====

conditions: in n-hexane, 300.87 K
measure: solubility (mole fraction)

The recorded solubility (mole fraction) for entry `COc1cc(CNC(=O)CCCCCCC(C)C)ccc1O` equals 0.000181

====

conditions: in water, 327.37 K
measure: solubility (mole fraction)
// keep it numeric: no unit symbol after the value

// solubility (mole fraction) lookup, molecule = `COc1cc(CNC(=O)CCCCCCC(C)C)ccc1O` , result: 9.26e-05

====

conditions: in n-heptane, 302.85 K
measure: solubility (mole fraction)
Just the number, please, no unit after it.

The recorded solubility (mole fraction) for `COc1cc(CNC(=O)CCCCCCC(C)C)ccc1O` is 0.000299
